Listing: EC50 of selected binders
- target-under-test: Gp120 (HIV)
- measurement-description: direct ELISA; direct ELISA
measured-metric: EC50

- binder: "NK 20K Direct (other, 20,000 MW PEG coupled by NHS ester to a primary amine. The intended site is the added N-terminal Lys, pos 2, written K; the N-terminal amine is also possible. At least one PEG per dimer. The exact site and number of PEGs are not determined.) MKSLTHRRFGGSGGSPFSGLSSIAVRSGSYLDAIIIDGVHHGGSGGNLSPTFTFGSGEYISNMTIRSGDYIDNISFETNQGRRFGPYGGSGGSANTLSNVRVIQINGSAGDYLDSLDIYYEQY"
  measured-metric: "EC50"
  reading: "0.0173 ng/mL"
- binder: "Q 20K Direct (other, 20,000 MW PEG coupled by NHS ester to a primary amine. The candidate sites are Lys pos 7 and Lys pos 100, both written K. At least one PEG per dimer. The exact site and number of PEGs are not determined.) MSLTHRKFGGSGGSPFSGLSSIAVRSGSYLDAIIIDGVHHGGSGGNLSPTFTFGSGEYISNMTIRSGDYIDNISFETNQGRRFGPYGGSGGSANTLSNVKVIQINGSAGDYLDSLDIYYEQY"
  measured-metric: "EC50"
  reading: "0.0355 ng/mL"
- binder: "M78K2K Rx Direct (other, chain 1 pos 79: Lys carrying 2,000 MW PEG by NHS-ester amine coupling, written K. It is the only lysine in the chain. At least one PEG per dimer. The exact site and occupancy were not measured.) MSLTHRRFGGSGGSPFSGLSSIAVRSGSYLDAIIIDGVHHGGSGGNLSPTFTFGSGEYISNMTIRSGDYIDNISFETNKGRRFGPYGGSGGSANTLSNVRVIQINGSAGDYLDSLDIYYEQY"
  measured-metric: "EC50"
  reading: "0.332 ng/mL"
- binder: "M78K20K Rx (other, chain 1 pos 79: Lys carrying 20,000 MW PEG by NHS-ester amine coupling, written K. It is the only lysine in the chain. At least one PEG per dimer. The exact site and occupancy were not measured.) MSLTHRRFGGSGGSPFSGLSSIAVRSGSYLDAIIIDGVHHGGSGGNLSPTFTFGSGEYISNMTIRSGDYIDNISFETNKGRRFGPYGGSGGSANTLSNVRVIQINGSAGDYLDSLDIYYEQY"
  measured-metric: "EC50"
  reading: "0.0624 ng/mL"
- binder: "NK 2K Direct (other, 2,000 MW PEG coupled by NHS ester to a primary amine. The intended site is the added N-terminal Lys, pos 2, written K; the N-terminal amine is also possible. At least one PEG per dimer. The exact site and number of PEGs are not determined.) MKSLTHRRFGGSGGSPFSGLSSIAVRSGSYLDAIIIDGVHHGGSGGNLSPTFTFGSGEYISNMTIRSGDYIDNISFETNQGRRFGPYGGSGGSANTLSNVRVIQINGSAGDYLDSLDIYYEQY"
  measured-metric: "EC50"
  reading: "0.0875 ng/mL"
- binder: "CK 20K Direct (other, 20,000 MW PEG coupled by NHS ester to a primary amine. The intended site is the added C-terminal Lys, pos 123, written K. At least one PEG per dimer. The exact site and number of PEGs are not determined.) MSLTHRRFGGSGGSPFSGLSSIAVRSGSYLDAIIIDGVHHGGSGGNLSPTFTFGSGEYISNMTIRSGDYIDNISFETNQGRRFGPYGGSGGSANTLSNVRVIQINGSAGDYLDSLDIYYEQYK"
  measured-metric: "EC50"
  reading: "0.029 ng/mL"
